- study.target: Voltage-dependent L-type calcium channel subunit alpha-1D (Rattus norvegicus)
- measurement.notes: Binding affinity for L-type [Ca2+] channels was measured through displacement of [3H]nitrendipine on rat cortex homogenates.
Values of Ki strictly less than 300 nM map to 1.0, and values of at least 300 nM map to 0.0.

COC(=O)C1=C(C)N=C(C)/C(=C(/O)OC)C1c1ccccc1OCc1nonc1C (configuration not stated): 1.0

[ask] API: query returns whether the compound falls strictly under 300 nM in Ki. Query: COC(=O)C1=C(C)N=C(C)/C(=C(/O)OC)C1c1ccccc1OCc1no[n+]([O-])c1C (configuration not stated)
[reply] 1.0

[ask] Given the entry COC(=O)C1=C(C)N=C(C)/C(=C(/O)OC)C1c1ccccc1OCc1c(C#N)no[n+]1[O-] (configuration not stated) , would its reported Ki be below 300 nM?
[reply] 1.0

[ask] # strict comparison: is reported Ki < 300 nM? input = COC(=O)C1=C(C)N=C(C)/C(=C(/O)OC)C1c1ccccc1OCc1nonc1C(N)=O (configuration not stated)
[reply] 0.0

----------
Listed compounds paired with reported log10 of Ki
- study.target: Voltage-dependent L-type calcium channel subunit alpha-1D (Rattus norvegicus, UniProt P27732)
- Sequence (P27732 whole entry): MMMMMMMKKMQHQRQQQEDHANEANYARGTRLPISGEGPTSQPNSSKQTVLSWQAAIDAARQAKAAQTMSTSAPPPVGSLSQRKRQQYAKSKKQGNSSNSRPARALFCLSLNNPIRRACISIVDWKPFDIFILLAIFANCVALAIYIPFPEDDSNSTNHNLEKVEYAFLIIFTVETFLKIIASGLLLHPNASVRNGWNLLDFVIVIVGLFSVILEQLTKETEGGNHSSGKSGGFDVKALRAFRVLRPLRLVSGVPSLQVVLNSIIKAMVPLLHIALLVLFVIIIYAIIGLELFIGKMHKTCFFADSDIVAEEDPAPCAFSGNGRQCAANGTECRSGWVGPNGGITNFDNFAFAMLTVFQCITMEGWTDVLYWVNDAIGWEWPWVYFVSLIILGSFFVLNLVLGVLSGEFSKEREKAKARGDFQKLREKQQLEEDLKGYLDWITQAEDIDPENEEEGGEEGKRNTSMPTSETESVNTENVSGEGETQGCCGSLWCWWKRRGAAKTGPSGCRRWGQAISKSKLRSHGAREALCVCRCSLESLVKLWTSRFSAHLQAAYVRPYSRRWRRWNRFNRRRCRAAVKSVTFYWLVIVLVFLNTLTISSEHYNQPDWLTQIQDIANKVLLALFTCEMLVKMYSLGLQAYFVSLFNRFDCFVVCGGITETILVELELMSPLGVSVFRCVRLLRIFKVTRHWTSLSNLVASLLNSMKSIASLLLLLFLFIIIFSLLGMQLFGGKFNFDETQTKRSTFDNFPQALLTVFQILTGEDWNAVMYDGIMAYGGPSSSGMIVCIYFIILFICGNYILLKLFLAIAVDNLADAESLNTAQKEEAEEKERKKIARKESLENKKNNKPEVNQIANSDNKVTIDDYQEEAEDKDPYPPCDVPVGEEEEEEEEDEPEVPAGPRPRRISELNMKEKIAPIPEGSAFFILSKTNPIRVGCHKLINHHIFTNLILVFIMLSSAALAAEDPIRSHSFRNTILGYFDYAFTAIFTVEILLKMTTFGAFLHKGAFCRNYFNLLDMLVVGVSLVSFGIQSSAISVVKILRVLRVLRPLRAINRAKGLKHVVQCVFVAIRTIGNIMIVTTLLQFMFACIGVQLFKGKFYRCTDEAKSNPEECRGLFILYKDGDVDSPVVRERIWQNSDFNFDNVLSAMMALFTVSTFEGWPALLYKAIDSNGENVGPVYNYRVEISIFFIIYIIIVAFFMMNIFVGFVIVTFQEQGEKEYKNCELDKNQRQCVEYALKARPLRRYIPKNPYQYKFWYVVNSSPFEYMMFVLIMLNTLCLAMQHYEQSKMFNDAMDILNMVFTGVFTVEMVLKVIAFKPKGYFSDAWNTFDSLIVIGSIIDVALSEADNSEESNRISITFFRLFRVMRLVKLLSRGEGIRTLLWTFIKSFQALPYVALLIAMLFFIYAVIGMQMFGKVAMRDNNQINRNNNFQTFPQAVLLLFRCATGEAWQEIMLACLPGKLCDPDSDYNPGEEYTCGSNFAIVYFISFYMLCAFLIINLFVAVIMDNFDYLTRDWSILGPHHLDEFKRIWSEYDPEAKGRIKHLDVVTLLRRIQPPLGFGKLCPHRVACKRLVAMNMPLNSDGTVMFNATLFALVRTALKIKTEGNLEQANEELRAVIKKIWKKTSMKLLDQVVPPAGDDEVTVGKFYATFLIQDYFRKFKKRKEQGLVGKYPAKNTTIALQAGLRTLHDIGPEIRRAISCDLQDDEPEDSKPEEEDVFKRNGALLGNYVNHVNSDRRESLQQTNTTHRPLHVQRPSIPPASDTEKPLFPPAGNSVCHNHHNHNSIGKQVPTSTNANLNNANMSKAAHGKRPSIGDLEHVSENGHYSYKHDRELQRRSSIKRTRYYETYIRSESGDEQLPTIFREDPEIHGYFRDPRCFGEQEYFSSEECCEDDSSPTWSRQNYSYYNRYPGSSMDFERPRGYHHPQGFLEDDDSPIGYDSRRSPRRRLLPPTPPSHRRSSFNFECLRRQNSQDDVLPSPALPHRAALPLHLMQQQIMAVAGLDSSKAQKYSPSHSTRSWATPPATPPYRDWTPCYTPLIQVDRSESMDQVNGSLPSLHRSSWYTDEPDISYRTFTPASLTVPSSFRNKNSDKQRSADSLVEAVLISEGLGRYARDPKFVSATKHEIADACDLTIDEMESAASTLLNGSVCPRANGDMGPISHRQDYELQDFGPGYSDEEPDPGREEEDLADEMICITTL
- measurement.notes: Binding affinity for L-type [Ca2+] channels was measured through displacement of [3H]nitrendipine on rat cortex homogenates.
Note the log scale: values are log10 of Ki expressed in nM.

As a guide, the following entries are already answered.
COC(=O)C1=C(C)N=C(C)/C(=C(/O)OC)C1c1cccc(OCc2c(C(N)=O)no[n+]2[O-])c1 (stereo not drawn): 3.20
COC(=O)C1=C(C)N=C(C)/C(=C(/O)OC)C1c1ccccc1OCc1no[n+]([O-])c1C#N (stereo not drawn): 1.32
COC(=O)C1=C(C)N=C(C)/C(=C(/O)OC)C1c1ccccc1OCc1c(C)no[n+]1[O-] (stereo not drawn): 1.51
COC(=O)C1=C(C)N=C(C)/C(=C(/O)OC)C1c1ccccc1OCc1nonc1C#N (stereo not drawn): 0.67
COC(=O)C1=C(C)N=C(C)/C(=C(/O)OC)C1c1cccc(OCc2no[n+]([O-])c2C(N)=O)c1 (stereo not drawn): 2.96
COC(=O)C1=C(C)N=C(C)/C(=C(/O)OC)C1c1cccc(OCc2no[n+]([O-])c2C)c1 (stereo not drawn): 2.57
COC(=O)C1=C(C)N=C(C)/C(=C(/O)OC)C1c1cccc(OCCO[N+](=O)[O-])c1 (stereo not drawn): 2.64

[ask] Read off the recorded log10 of Ki for COC(=O)C1=C(C)N=C(C)/C(=C(/O)OC)C1c1ccccc1OCc1no[n+]([O-])c1C(N)=O (stereo not drawn)
[reply] 2.83

----------
- study.target: Voltage-dependent L-type calcium channel subunit alpha-1D (Rattus norvegicus, UniProt P27732)
- measurement.notes: Binding affinity for L-type [Ca2+] channels was measured through displacement of [3H]nitrendipine on rat cortex homogenates.
assay.readout: pKi
FYI, pKi means -log10 of a concentration in mol per litre.

Previously resolved entries follow.
COC(=O)C1=C(C)N=C(C)/C(=C(/O)OC)C1c1cccc(OCc2nonc2C)c1 (stereo not given): 6.49
COC(=O)C1=C(C)N=C(C)/C(=C(/O)OC)C1c1cccc(OCc2nonc2C#N)c1 (stereo not given): 6.57
COC(=O)C1=C(C)N=C(C)/C(=C(/O)OC)C1c1cccc(OCc2no[n+]([O-])c2C#N)c1 (stereo not given): 6.64
COC(=O)C1=C(C)N=C(C)/C(=C(/O)OC)C1c1cccc(OCc2c(C#N)no[n+]2[O-])c1 (stereo not given): 6.66

[ask] Given COC(=O)C1=C(C)N=C(C)/C(=C(/O)OC)C1c1ccccc1OCc1c(C(N)=O)no[n+]1[O-] (stereo not given) , respond with its pKi.
[reply] 6.46

----------
A collection of compounds and their measured IC50
- study.target: Voltage-dependent L-type calcium channel subunit alpha-1D (Rattus norvegicus, UniProt P27732)
- measurement.notes: Inhibitory concentration for L-type [Ca2+] channels was measured through displacement of [3H]nitrendipine on rat cortex homogenates.
Number in µM, nothing else.

[ask] Hello, please tell me recorded IC50 for this one: COC(=O)C1=C(C)N=C(C)/C(=C(/O)OC)C1c1cccc(OCc2no[n+]([O-])c2C#N)c1 (stereo not given)
[reply] 0.5

[ask] Quick one: give measured IC50 for COC(=O)C1=C(C)N=C(C)/C(=C(/O)OC)C1c1ccccc1OCc1nonc1C#N (stereo not given)
[reply] 0.01

[ask] Write down IC50 measured for item COC(=O)C1=C(C)N=C(C)/C(=C(/O)OC)C1c1ccccc1OCc1c(C)no[n+]1[O-] (stereo not given)
[reply] 0.072

[ask] Please look at this compound and report its IC50: COC(=O)C1=C(C)N=C(C)/C(=C(/O)OC)C1c1ccccc1OCc1no[n+]([O-])c1C (stereo not given)
[reply] 0.04

[ask] State, in one line, measured IC50 of COC(=O)C1=C(C)N=C(C)/C(=C(/O)OC)C1c1cccc(OCc2nonc2C)c1 (stereo not given)
[reply] 0.72

----------
- study.target: Voltage-dependent L-type calcium channel subunit alpha-1D (Rattus norvegicus, UniProt P27732)
- measurement.notes: Inhibitory concentration for L-type [Ca2+] channels was measured through displacement of [3H]nitrendipine on rat cortex homogenates.
assay.readout: IC50 (nM)
Report the figure in nM without appending any unit label.

Known IC50 results, listed for orientation:
COC(=O)C1=C(C)N=C(C)/C(=C(/O)OC)C1c1cccc(OCc2c(C(N)=O)no[n+]2[O-])c1 (stereo unspecified): 3600
COC(=O)C1=C(C)N=C(C)/C(=C(/O)OC)C1c1cccc(OCc2nonc2C#N)c1 (stereo unspecified): 590
COC(=O)C1=C(C)N=C(C)/C(=C(/O)OC)C1c1cccc(OCc2c(C#N)no[n+]2[O-])c1 (stereo unspecified): 500
COC(=O)C1=C(C)N=C(C)/C(=C(/O)OC)C1c1cccc(OCc2no[n+]([O-])c2C(N)=O)c1 (stereo unspecified): 2000
COC(=O)C1=C(C)N=C(C)/C(=C(/O)OC)C1c1ccccc1OCc1c(C(N)=O)no[n+]1[O-] (stereo unspecified): 780

[ask] Return reported IC50. Input compound: COC(=O)C1=C(C)N=C(C)/C(=C(/O)OC)C1c1cccc(OCc2c(C)no[n+]2[O-])c1 (stereo unspecified)
[reply] 610

----------
Here, each record is paired with measured pIC50 data.
- study.target: Voltage-dependent L-type calcium channel subunit alpha-1D (Rattus norvegicus)
- measurement.notes: Inhibitory concentration for L-type [Ca2+] channels was measured through displacement of [3H]nitrendipine on rat cortex homogenates.
# log scale: pIC50 equals minus log10 of the concentration in mol/L

Please review the entries below; each comes with its answer.
COC(=O)C1=C(C)N=C(C)/C(=C(/O)OC)C1c1cccc(OCc2no[n+]([O-])c2C)c1 (centres undefined): 6.09
COC(=O)C1=C(C)N=C(C)/C(=C(/O)OC)C1c1cccc(OCCO[N+](=O)[O-])c1 (centres undefined): 6.01
COC(=O)C1=C(C)N=C(C)/C(=C(/O)OC)C1c1ccccc1OCc1no[n+]([O-])c1C(N)=O (centres undefined): 5.82
COC(=O)C1=C(C)N=C(C)/C(=C(/O)OC)C1c1ccccc1OCCO[N+](=O)[O-] (centres undefined): 7.07
COC(=O)C1=C(C)N=C(C)/C(=C(/O)OC)C1c1ccccc1OCc1nonc1C(N)=O (centres undefined): 6.06

[ask] Answer with the recorded pIC50 of COC(=O)C1=C(C)N=C(C)/C(=C(/O)OC)C1c1ccccc1OCc1no[n+]([O-])c1C#N (centres undefined) only.
[reply] 7.57

[ask] In one line, give reported pIC50 of the entry COC(=O)C1=C(C)N=C(C)/C(=C(/O)OC)C1c1cccc(OCc2nonc2C(N)=O)c1 (centres undefined) .
[reply] 5.29

[ask] Complete the entry with pIC50 for COC(=O)C1=C(C)N=C(C)/C(=C(/O)OC)C1c1ccccc1OCc1c(C#N)no[n+]1[O-] (centres undefined)
[reply] 7.17

[ask] Provide one value: measured pIC50 of COC(=O)C1=C(C)N=C(C)/C(=C(/O)OC)C1c1ccccc1OCc1nonc1C (centres undefined)
[reply] 7.23

----------
- Organism: Rattus norvegicus
- measurement.notes: […]
- Assay type: functional
Parameter Nitric oxide: see the listing below.
# unit: % | format: bare number

COC(=O)C1=C(C)N=C(C)/C(=C(/O)OC)C1c1ccccc1OCc1c(C(N)=O)no[n+]1[O-] (centres undefined): 12.3
COC(=O)C1=C(C)N=C(C)/C(=C(/O)OC)C1c1ccccc1OCc1no[n+]([O-])c1C (centres undefined): 0.9
COC(=O)C1=C(C)N=C(C)/C(=C(/O)OC)C1c1ccccc1OCc1no[n+]([O-])c1C(N)=O (centres undefined): 13
COC(=O)C1=C(C)N=C(C)/C(=C(/O)OC)C1c1cccc(OCc2no[n+]([O-])c2C#N)c1 (centres undefined): 43.8

[ask] Please supply the value of reported Nitric oxide for the item COC(=O)C1=C(C)N=C(C)/C(=C(/O)OC)C1c1ccccc1OCc1no[n+]([O-])c1C#N (centres undefined)
[reply] 40.8

[ask] Find the measured Nitric oxide of COC(=O)C1=C(C)N=C(C)/C(=C(/O)OC)C1c1ccccc1OCc1c(C)no[n+]1[O-] (centres undefined) and report it.
[reply] 1.8

[ask] Name the recorded Nitric oxide of the molecule listed here: COC(=O)C1=C(C)N=C(C)/C(=C(/O)OC)C1c1cccc(OCc2no[n+]([O-])c2C(N)=O)c1 (centres undefined)
[reply] 6
